src = BindingDB's records for doi:10.1021/jm0009181

Target: Bifunctional dihydrofolate reductase-thymidylate synthase (Plasmodium falciparum)
Sequence (A7UD81 whole entry): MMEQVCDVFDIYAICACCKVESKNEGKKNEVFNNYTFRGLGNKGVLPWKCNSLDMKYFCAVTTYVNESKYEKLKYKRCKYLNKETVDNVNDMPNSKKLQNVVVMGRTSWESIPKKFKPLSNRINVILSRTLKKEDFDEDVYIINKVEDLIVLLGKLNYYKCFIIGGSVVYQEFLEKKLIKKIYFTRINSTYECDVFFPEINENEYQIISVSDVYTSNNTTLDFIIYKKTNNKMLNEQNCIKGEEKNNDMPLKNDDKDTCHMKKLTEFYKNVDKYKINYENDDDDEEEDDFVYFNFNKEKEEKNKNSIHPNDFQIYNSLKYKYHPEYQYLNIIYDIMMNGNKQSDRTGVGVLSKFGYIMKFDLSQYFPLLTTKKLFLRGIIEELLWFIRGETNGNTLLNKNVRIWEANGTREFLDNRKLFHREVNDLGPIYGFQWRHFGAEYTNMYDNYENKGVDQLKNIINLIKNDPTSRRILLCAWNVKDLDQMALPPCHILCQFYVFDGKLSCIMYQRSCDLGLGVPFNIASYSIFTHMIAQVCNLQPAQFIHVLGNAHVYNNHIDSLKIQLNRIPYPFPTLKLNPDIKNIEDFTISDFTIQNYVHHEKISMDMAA
Test: Evaluated for inhibition constant (Ki wt) against Wild-type dihydrofolate reductase of Plasmodium falciparum
Overview of reported Ki across a group of compounds:
Report as a plain number; the unit nM is understood.

Examples with answers:
{"columns": ["COMPOUND", "TARGET_OF_ASSAY", "Ki / nM"],
 "data": [
  ["NC1=NC(c2ccccc2)N(c2ccc(Br)cc2)C(N)=N1 (stereo unspecified)", "Bifunctional dihydrofolate reductase-thymidylate synthase (Plasmodium falciparum)", 2.9],
  ["CCC1N=C(N)N=C(N)N1c1ccc(C)cc1 (stereo unspecified)", "Bifunctional dihydrofolate reductase-thymidylate synthase (Plasmodium falciparum)", 5.9]
]}

input: Report measured Ki on Bifunctional dihydrofolate reductase-thymidylate synthase (Plasmodium falciparum); entry: Cc1ccc(N2C(N)=NC(N)=NC2C)cc1 (stereo unspecified)
output: 23
